# conditions_used: in isobutanol, 308.15 K
assay_endpoint: solubility (mole fraction)
Please reply with the value in numeric form only.

Q. Any idea what its solubility (mole fraction) is? The molecule is O=[N+]([O-])c1cn[nH]c1[N+](=O)[O-]
A. 0.391

====

# conditions_used: in THF, 313.15 K
assay_endpoint: solubility (mole fraction)
Please reply with the value in numeric form only.

Q. Any idea what its solubility (mole fraction) is? The compound is O=[N+]([O-])c1cn[nH]c1[N+](=O)[O-]
A. 0.792

====

# conditions_used: in 2-butanone, 288.15 K
assay_endpoint: solubility (mole fraction)
Please reply with the value in numeric form only.

Q. Any idea what its solubility (mole fraction) is? The molecule is O=[N+]([O-])c1cn[nH]c1[N+](=O)[O-]
A. 0.45

Reference source: BigSolDB 2.1
